Data provenance is paper PMC7866984.

Overview of recorded -b for various compounds
testDetails: RP-TLC experimental lipophilicity
Type: physicochemical
experimentalParameters: slope of regression plot RM = RM0 + bC
Please state the value as a number alone, without comment.

Study these solved cases before continuing.
C=C(COP(=O)(OCC)OCC)[C@@H]1CC[C@]2(COC(C)=O)CC[C@]3(C)C(CCC4[C@@]5(C)CC[C@H](OC(C)=O)C(C)(C)C5CC[C@]43C)C12 (stereo partly shown) ... 0.064
C=C(COP(=O)(OCC)OCC)[C@@H]1CC[C@]2(COC(=O)C#Cc3ccccc3)CC[C@]3(C)C(CCC4[C@@]5(C)CC[C@H](O)C(C)(C)C5CC[C@]43C)C12 (stereo partly shown) ... 0.070

Identify measured -b corresponding to C#CC(=O)OC[C@]12CC[C@@H](C(=C)COP(=O)(OCC)OCC)C1C1CCC3[C@@]4(C)CC[C@H](O)C(C)(C)C4CC[C@@]3(C)[C@]1(C)CC2 (stereo partly shown)
0.062

Identify measured -b corresponding to C=C(COP(=O)(OCC)OCC)[C@@H]1CC[C@]2(COC(=O)C#CC3CC3)CC[C@]3(C)C(CCC4[C@@]5(C)CC[C@H](OC(=O)C#CC6CC6)C(C)(C)C5CC[C@]43C)C12 (stereo partly shown)
0.071

* * *

testDetails: RP-TLC experimental lipophilicity
Assay type: physicochemical
experimentalParameters: RP-TLC, from RM0 by calibration equation
Please assign 0.0 whenever logPTLC is at or above 7, and 1.0 whenever it is below.

Regarding C=C(COP(=O)(OCC)OCC)C1CCC2(CO)CCC3(C)C(CCC4C5(C)CCC(O)C(C)(C)C5CCC43C)C12 (stereo not shown) , kindly confirm whether its logPTLC is beneath 7.
1.0

Regarding C=C(COP(=O)(OCC)OCC)[C@@H]1CC[C@]2(COC(=O)C#CC)CC[C@]3(C)C(CCC4[C@@]5(C)CC[C@H](OC(=O)C#CC)C(C)(C)C5CC[C@]43C)C12 (stereo partly shown) , kindly confirm whether its logPTLC is beneath 7.
0.0

Regarding C=C(COP(=O)(OCC)OCC)[C@@H]1CC[C@]2(COC(=O)C#CC3CC3)CC[C@]3(C)C(CCC4[C@@]5(C)CC[C@H](O)C(C)(C)C5CC[C@]43C)C12 (stereo partly shown) , kindly confirm whether its logPTLC is beneath 7.
0.0

Regarding C#CC(=O)OC[C@]12CC[C@@H](C(=C)COP(=O)(OCC)OCC)C1C1CCC3[C@@]4(C)CC[C@H](OC(=O)C#C)C(C)(C)C4CC[C@@]3(C)[C@]1(C)CC2 (stereo partly shown) , kindly confirm whether its logPTLC is beneath 7.
0.0

Regarding C=C(COP(=O)(OCC)OCC)[C@@H]1CC[C@]2(COC(C)=O)CC[C@]3(C)C(CCC4[C@@]5(C)CC[C@H](OC(C)=O)C(C)(C)C5CC[C@]43C)C12 (stereo partly shown) , kindly confirm whether its logPTLC is beneath 7.
0.0

Regarding C=C(COP(=O)(OCC)OCC)[C@@H]1CC[C@]2(COC(=O)C#Cc3ccccc3)CC[C@]3(C)C(CCC4[C@@]5(C)CC[C@H](O)C(C)(C)C5CC[C@]43C)C12 (stereo partly shown) , kindly confirm whether its logPTLC is beneath 7.
0.0

* * *

testDetails: RP-TLC experimental lipophilicity
Assay type: physicochemical
experimentalParameters: RP-TLC, acetone/Tris buffer pH 7.4, extrapolated to zero acetone
Overview of recorded RM0 for various compounds
Please state the value as a number alone, without comment.

C=C(COP(=O)(OCC)OCC)[C@@H]1CC[C@]2(COC(=O)C#Cc3ccccc3)CC[C@]3(C)C(CCC4[C@@]5(C)CC[C@H](O)C(C)(C)C5CC[C@]43C)C12 (some centres unmarked) ... 6.145

Pending compound:
Identify measured RM0 corresponding to C=C(CO)[C@@H]1CC[C@]2(COC(C)=O)CC[C@]3(C)C(CCC4[C@@]5(C)CC[C@H](OC(C)=O)C(C)(C)C5CC[C@]43C)C12 (some centres unmarked) [Compound 3, 3,28-Diacetyl-30-hydroxybetulin]
5.655

* * *

Overview of recorded -b for various compounds
testDetails: RP-TLC experimental lipophilicity
Assay type: physicochemical
experimentalParameters: slope of regression plot RM = RM0 + bC
Please state the value as a number alone, without comment.

C=C(COP(=O)(OCC)OCC)[C@@H]1CC[C@]2(COC(=O)C#CC3CC3)CC[C@]3(C)C(CCC4[C@@]5(C)CC[C@H](O)C(C)(C)C5CC[C@]43C)C12 (stereo partly drawn) ... 0.064
C=C(COP(=O)(OCC)OCC)[C@@H]1CC[C@]2(COC(=O)C#CC)CC[C@]3(C)C(CCC4[C@@]5(C)CC[C@H](OC(=O)C#CC)C(C)(C)C5CC[C@]43C)C12 (stereo partly drawn) ... 0.078

Identify measured -b corresponding to C=C(CO)[C@@H]1CC[C@]2(COC(C)=O)CC[C@]3(C)C(CCC4[C@@]5(C)CC[C@H](OC(C)=O)C(C)(C)C5CC[C@]43C)C12 (stereo partly drawn) [Compound 3, 3,28-Diacetyl-30-hydroxybetulin]
0.064

Identify measured -b corresponding to C=C(COP(=O)(OCC)OCC)[C@@H]1CC[C@]2(COC(=O)C#CC)CC[C@]3(C)C(CCC4[C@@]5(C)CC[C@H](O)C(C)(C)C5CC[C@]43C)C12 (stereo partly drawn)
0.063

Identify measured -b corresponding to C#CCOC(=O)OC[C@]12CC[C@@H](C(=C)COP(=O)(OCC)OCC)C1C1CCC3[C@@]4(C)CC[C@H](OC(=O)OCC#C)C(C)(C)C4CC[C@@]3(C)[C@]1(C)CC2 (stereo partly drawn)
0.076

Identify measured -b corresponding to C#CC(=O)OC[C@]12CC[C@@H](C(=C)COP(=O)(OCC)OCC)C1C1CCC3[C@@]4(C)CC[C@H](OC(=O)C#C)C(C)(C)C4CC[C@@]3(C)[C@]1(C)CC2 (stereo partly drawn)
0.080

Identify measured -b corresponding to C#CCOC(=O)OC[C@]12CC[C@@H](C(=C)COP(=O)(OCC)OCC)C1C1CCC3[C@@]4(C)CC[C@H](O)C(C)(C)C4CC[C@@]3(C)[C@]1(C)CC2 (stereo partly drawn)
0.063

Identify measured -b corresponding to C=C(COP(=O)(OCC)OCC)C1CCC2(CO)CCC3(C)C(CCC4C5(C)CCC(O)C(C)(C)C5CCC43C)C12 (stereo not drawn)
0.046

Identify measured -b corresponding to C=C(COP(=O)(OCC)OCC)[C@@H]1CC[C@]2(COC(=O)C#Cc3ccccc3)CC[C@]3(C)C(CCC4[C@@]5(C)CC[C@H](OC(=O)C#Cc6ccccc6)C(C)(C)C5CC[C@]43C)C12 (stereo partly drawn)
0.086

* * *

testDetails: RP-TLC experimental lipophilicity
Assay type: physicochemical
experimentalParameters: RP-TLC, acetone/Tris buffer pH 7.4, extrapolated to zero acetone
measuredEndpoint: RM0
Please state the value as a number alone, without comment.

C#CCOC(=O)OC[C@]12CC[C@@H](C(=C)COP(=O)(OCC)OCC)C1C1CCC3[C@@]4(C)CC[C@H](O)C(C)(C)C4CC[C@@]3(C)[C@]1(C)CC2 (stereo partly drawn) [Compound 7e] ... 5.302
C#CC(=O)OC[C@]12CC[C@@H](C(=C)COP(=O)(OCC)OCC)C1C1CCC3[C@@]4(C)CC[C@H](O)C(C)(C)C4CC[C@@]3(C)[C@]1(C)CC2 (stereo partly drawn) [Compound 7a] ... 5.318
C=C(COP(=O)(OCC)OCC)[C@@H]1CC[C@]2(COC(C)=O)CC[C@]3(C)C(CCC4[C@@]5(C)CC[C@H](OC(C)=O)C(C)(C)C5CC[C@]43C)C12 (stereo partly drawn) [Compound 4] ... 5.740
C#CC(=O)OC[C@]12CC[C@@H](C(=C)COP(=O)(OCC)OCC)C1C1CCC3[C@@]4(C)CC[C@H](OC(=O)C#C)C(C)(C)C4CC[C@@]3(C)[C@]1(C)CC2 (stereo partly drawn) [Compound 6a] ... 6.893
C#CCOC(=O)OC[C@]12CC[C@@H](C(=C)COP(=O)(OCC)OCC)C1C1CCC3[C@@]4(C)CC[C@H](OC(=O)OCC#C)C(C)(C)C4CC[C@@]3(C)[C@]1(C)CC2 (stereo partly drawn) [Compound 6e] ... 6.490

Pending compound:
Identify measured RM0 corresponding to C=C(COP(=O)(OCC)OCC)[C@@H]1CC[C@]2(COC(=O)C#CC)CC[C@]3(C)C(CCC4[C@@]5(C)CC[C@H](OC(=O)C#CC)C(C)(C)C5CC[C@]43C)C12 (stereo partly drawn) [Compound 6b]
6.884
